# TARGET_OR_TEST_SYSTEM: serum proteins (fresh human serum) (human)
# ASSAY_REMARKS: incubation in fresh human serum at 37 C (500 pmol/mL), Sephadex G-50 size-exclusion chromatography, gamma counting
[ ]: non-standard residue; d: D form. The star is where a group is joined. DOTA = O=C(O)CN1CCN(CC(=O)O)CCN(CC(=O)*)CCN(CC(=O)O)CC1; 1Nal = N[C@@H](Cc1cccc2ccccc12)C(=O)O; 2Nal = N[C@@H](Cc1ccc2ccccc2c1)C(=O)O; NMeF = CN[C@@H](Cc1ccccc1)C(=O)O; NMeNle = CCCC[C@H](NC)C(=O)O
ASSAY_READOUT: Percentage of radioligand bound to serum proteins after 4 h incubation (%)
Response body: numeric value in %, unit text excluded.

{DOTA}-[dE]AYGW[NMeNle]D[NMeF]-NH2 (also: DOTA coordinates 111In) [^111In-DOTA-MGS4 (^111In-DOTA-DGlu-Ala-Tyr-Gly-Trp-(N-Me)Nle-Asp-(N-Me)Phe-NH2)] yielded Percentage of radioligand bound to serum proteins after 4 h incubation of 8.9

{DOTA}-[dE]AYGWMD[1Nal]-NH2 (also: DOTA coordinates 111In) [^111In-DOTA-MGS1 (^111In-DOTA-DGlu-Ala-Tyr-Gly-Trp-Met-Asp-1Nal-NH2)] yielded Percentage of radioligand bound to serum proteins after 4 h incubation of 20

{DOTA}-[dE]AYGW[NMeNle]D[2Nal]-NH2 (also: DOTA coordinating 111In) [^111In-DOTA-MGS5-2] yielded Percentage of radioligand bound to serum proteins after 4 h incubation of 31.7

{DOTA}-[dE]AYGW[NMeNle]D[1Nal]-NH2 (also: DOTA coordinating 111In) [^111In-DOTA-MGS5] yielded Percentage of radioligand bound to serum proteins after 4 h incubation of 41

{DOTA}-[dE]PYGW[NMeNle]D[1Nal]-NH2 (also: DOTA coordinates 111In) [^111In-DOTA-MGS8] yielded Percentage of radioligand bound to serum proteins after 4 h incubation of 44.5

{DOTA}-[dE]YPGW[NMeNle]D[1Nal]-NH2 (also: DOTA coordinates 111In) [^111In-DOTA-MGS10] yielded Percentage of radioligand bound to serum proteins after 4 h incubation of 56.7

{DOTA}-[dE]AYPW[NMeNle]D[1Nal]-NH2 (also: DOTA coordinates 111In) [^111In-DOTA-MGS12] yielded Percentage of radioligand bound to serum proteins after 4 h incubation of 41.2

{DOTA}-[dK]AYGW[NMeNle]D[1Nal]-NH2 (also: DOTA coordinating 111In) [^111In-DOTA-MGS9] yielded Percentage of radioligand bound to serum proteins after 4 h incubation of 26.6
